Test system: C33A
Assay comment: Primary qHTS to identify gynecologic anti-cancer compounds using libraries of approved drugs and bioactive compounds (AID 1345084); also: % is scaled to controls: 0 for no effect and ±100 for the full control effect; nearly all actives have a fitted effect of over 55% in size
Condition label: Gynecologic cancer cell panel viability, ATPlite luminescence, 48 h; series mostly up to 57.5 µM
Records with an inconclusive call do not appear. Calls of active or inactive are those of the source. Calls follow the shape of the dose curve; as a rule, active = well fitted cell-killing curve with a large enough effect; inconclusive = small, poorly fitted or top-dose-only effect, or effect the other way; inactive = flat fitted curve, though single readings scatter.
Recorded endpoint: activity change, negative = cytotoxicity

{"Compound": "C[C@@H]1O[C@@H](O[C@H]2[C@H](OC(=O)[C@]34CCC(C)(C)C[C@H]3C3=CCC5[C@@]6(C)C[C@H](O)[C@H](O[C@@H]7O[C@H](CO)[C@@H](O[C@H]8OC[C@](O)(CO)[C@H]8O)[C@H](O)[C@H]7O)[C@@](C)(CO)C6[C@H](O)C[C@@]5(C)[C@]3(C)C[C@H]4O)OC[C@H](O)[C@@H]2O)[C@H](O)[C@H](O)[C@H]1O[C@@H]1OC[C@@H](O)[C@H](O[C@@H]2OC[C@](O)(CO)[C@H]2O)[C@H]1O (stereo partly specified)", "Experimental result": "-2.68% [at 6.55 µM] (inactive)"}
{"Compound": "CC1CCC23COC(=O)C2=CC(O)CC3C1(C)CCC1=CC(O)OC1=O (stereo unspecified)", "Experimental result": "inactive"}
{"Compound": "COc1ccc(Cl)c(Nc2nc3ccccc3nc2NS(=O)(=O)c2cccc(NC(=O)C(C)(C)N)c2)c1", "Experimental result": "inactive"}
{"Compound": "CCC(C)C(=O)OC1CC(C)C=C2C=CC(C)C(CCC(O)CC(O)CC(=O)O)C21 (stereo unspecified)", "Experimental result": "inactive"}
{"Compound": "C/C=C/c1ccc2oc(-c3ccc(O)c(OC)c3)c(C)c2c1", "Experimental result": "inactive"}
{"Compound": "C=C1CCC2C(C)(C(=O)OC)CCCC2(C)C1CCC(C)CC(=O)O (stereo unspecified)", "Experimental result": "inactive"}
